tested system: eIF4AIMus (Mus musculus, UniProt P60843)
Construct: His tag; made in house; host or cells: Escherichia coli Rosetta (Novagen)
Sequence (P60843 whole entry): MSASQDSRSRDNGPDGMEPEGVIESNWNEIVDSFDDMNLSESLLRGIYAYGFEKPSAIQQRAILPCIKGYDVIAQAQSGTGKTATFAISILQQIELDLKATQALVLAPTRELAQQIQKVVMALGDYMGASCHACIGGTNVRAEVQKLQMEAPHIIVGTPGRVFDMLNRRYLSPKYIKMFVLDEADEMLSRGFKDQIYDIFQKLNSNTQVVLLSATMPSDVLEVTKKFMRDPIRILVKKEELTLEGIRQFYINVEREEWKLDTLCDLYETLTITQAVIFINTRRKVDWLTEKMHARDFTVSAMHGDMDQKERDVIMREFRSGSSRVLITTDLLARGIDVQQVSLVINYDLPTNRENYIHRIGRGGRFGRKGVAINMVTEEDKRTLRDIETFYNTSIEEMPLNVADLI
assay overview: Malachite green RNA-dependent ATPase assay of eIF4AIMus
Type: biochemical
conditions: 1 μM protein, 1 mM ATP, saturating RNA; read-out: IC50 of eIF4AIMus ATPase activity
metric: IC50 (µM)
Your answer should be a plain number; it is taken to be in µM.

// IC50 lookup, molecule = CC(C)CCCC(C)C1CCC2C3CC(N)C4CC(O)CCC4(C)C3CCC12C (stereo not drawn) [Compound 20, 6-α-aminocholestanol] , result: 185

// IC50 lookup, molecule = CC(C)CCCC(C)C1CCC2C3CC(N)C4CC(O)CCC4(C)C3CCC12C (mixture of isomers) [Compound 208, 6-α/β-aminocholestanol] , result: 115

====

tested system: eIF4AIMus (Mus musculus, UniProt P60843)
Construct: His tag; made in house; host or cells: Escherichia coli Rosetta (Novagen)
assay overview: Malachite green RNA-dependent ATPase assay of eIF4AIMus
Format: biochemical
pIC50: −log10 of the molar value.
metric: pIC50

// pIC50 lookup, compound = CC(C)CCCC(C)C1CCC2C3CC(=O)C4CC(O)CCC4(C)C3CCC12C (stereo not shown) , result: < 3.00

====

tested system: eIF4AIMus (Mus musculus)
Construct: His tag; made in house; host or cells: Escherichia coli Rosetta (Novagen)
assay overview: Malachite green RNA-dependent ATPase assay of eIF4AIMus
Format: biochemical
conditions: read-out: IC50 of eIF4AIMus ATPase activity; 1 μM protein; value printed in mM in text
metric: IC50

// IC50 lookup, compound = CC(C)CCCC(C)C1CCC2C3CC(=O)C4CC(O)CCC4(C)C3CCC12C (stereo not shown) , result: ≤ 1 mM

====

tested system: LieIF (Leishmania infantum)
Construct: His tag; made in house; host or cells: Escherichia coli Rosetta (Novagen)
Sequence (A4HRK0 1-403): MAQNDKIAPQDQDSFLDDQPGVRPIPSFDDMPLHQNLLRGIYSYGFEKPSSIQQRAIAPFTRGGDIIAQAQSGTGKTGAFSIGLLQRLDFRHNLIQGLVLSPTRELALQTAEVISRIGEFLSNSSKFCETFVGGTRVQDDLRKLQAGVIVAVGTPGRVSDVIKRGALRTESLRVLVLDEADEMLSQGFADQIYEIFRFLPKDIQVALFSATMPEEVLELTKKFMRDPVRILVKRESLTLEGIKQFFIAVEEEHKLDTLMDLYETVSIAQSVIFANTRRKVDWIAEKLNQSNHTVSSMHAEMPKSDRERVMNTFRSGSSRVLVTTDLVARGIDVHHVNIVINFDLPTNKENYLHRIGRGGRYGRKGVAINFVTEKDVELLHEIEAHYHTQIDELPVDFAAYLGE
assay overview: Malachite green RNA-dependent ATPase assay of LieIF
Format: biochemical
conditions: read-out: IC50 of LieIF ATPase activity; 1 μM protein; value printed in mM in text
metric: IC50

// IC50 lookup, compound = CC(C)CCCC(C)C1CCC2C3CC(=O)C4CC(O)CCC4(C)C3CCC12C (stereo not shown) , result: ≤ 1 mM

====

Give pIC50 for every item shown.
tested system: LieIF (Leishmania infantum, UniProt A4HRK0)
Construct: His tag; made in house; host or cells: Escherichia coli Rosetta (Novagen)
assay overview: Malachite green RNA-dependent ATPase assay of LieIF
Assay type: biochemical
In simple prose, pIC50 is minus the logarithm base ten of a concentration in moles per litre.

// pIC50 lookup, compound = CC(C)CCCC(C)C1CCC2C3CC(N)C4CC(O)CCC4(C)C3CCC12C (mixture of isomers) [Compound 208, 6-α/β-aminocholestanol] , result: 3.82

// pIC50 lookup, compound = CC(C)CCCC(C)C1CCC2C3CC(N)C4CC(O)CCC4(C)C3CCC12C (stereo not drawn) [Compound 20, 6-α-aminocholestanol] , result: 3.80
